Target: N-type calcium channel (Homo sapiens)
Construct: expressed in transfected cells; host or cells: HEK 293
Sequence (Q00975 whole entry): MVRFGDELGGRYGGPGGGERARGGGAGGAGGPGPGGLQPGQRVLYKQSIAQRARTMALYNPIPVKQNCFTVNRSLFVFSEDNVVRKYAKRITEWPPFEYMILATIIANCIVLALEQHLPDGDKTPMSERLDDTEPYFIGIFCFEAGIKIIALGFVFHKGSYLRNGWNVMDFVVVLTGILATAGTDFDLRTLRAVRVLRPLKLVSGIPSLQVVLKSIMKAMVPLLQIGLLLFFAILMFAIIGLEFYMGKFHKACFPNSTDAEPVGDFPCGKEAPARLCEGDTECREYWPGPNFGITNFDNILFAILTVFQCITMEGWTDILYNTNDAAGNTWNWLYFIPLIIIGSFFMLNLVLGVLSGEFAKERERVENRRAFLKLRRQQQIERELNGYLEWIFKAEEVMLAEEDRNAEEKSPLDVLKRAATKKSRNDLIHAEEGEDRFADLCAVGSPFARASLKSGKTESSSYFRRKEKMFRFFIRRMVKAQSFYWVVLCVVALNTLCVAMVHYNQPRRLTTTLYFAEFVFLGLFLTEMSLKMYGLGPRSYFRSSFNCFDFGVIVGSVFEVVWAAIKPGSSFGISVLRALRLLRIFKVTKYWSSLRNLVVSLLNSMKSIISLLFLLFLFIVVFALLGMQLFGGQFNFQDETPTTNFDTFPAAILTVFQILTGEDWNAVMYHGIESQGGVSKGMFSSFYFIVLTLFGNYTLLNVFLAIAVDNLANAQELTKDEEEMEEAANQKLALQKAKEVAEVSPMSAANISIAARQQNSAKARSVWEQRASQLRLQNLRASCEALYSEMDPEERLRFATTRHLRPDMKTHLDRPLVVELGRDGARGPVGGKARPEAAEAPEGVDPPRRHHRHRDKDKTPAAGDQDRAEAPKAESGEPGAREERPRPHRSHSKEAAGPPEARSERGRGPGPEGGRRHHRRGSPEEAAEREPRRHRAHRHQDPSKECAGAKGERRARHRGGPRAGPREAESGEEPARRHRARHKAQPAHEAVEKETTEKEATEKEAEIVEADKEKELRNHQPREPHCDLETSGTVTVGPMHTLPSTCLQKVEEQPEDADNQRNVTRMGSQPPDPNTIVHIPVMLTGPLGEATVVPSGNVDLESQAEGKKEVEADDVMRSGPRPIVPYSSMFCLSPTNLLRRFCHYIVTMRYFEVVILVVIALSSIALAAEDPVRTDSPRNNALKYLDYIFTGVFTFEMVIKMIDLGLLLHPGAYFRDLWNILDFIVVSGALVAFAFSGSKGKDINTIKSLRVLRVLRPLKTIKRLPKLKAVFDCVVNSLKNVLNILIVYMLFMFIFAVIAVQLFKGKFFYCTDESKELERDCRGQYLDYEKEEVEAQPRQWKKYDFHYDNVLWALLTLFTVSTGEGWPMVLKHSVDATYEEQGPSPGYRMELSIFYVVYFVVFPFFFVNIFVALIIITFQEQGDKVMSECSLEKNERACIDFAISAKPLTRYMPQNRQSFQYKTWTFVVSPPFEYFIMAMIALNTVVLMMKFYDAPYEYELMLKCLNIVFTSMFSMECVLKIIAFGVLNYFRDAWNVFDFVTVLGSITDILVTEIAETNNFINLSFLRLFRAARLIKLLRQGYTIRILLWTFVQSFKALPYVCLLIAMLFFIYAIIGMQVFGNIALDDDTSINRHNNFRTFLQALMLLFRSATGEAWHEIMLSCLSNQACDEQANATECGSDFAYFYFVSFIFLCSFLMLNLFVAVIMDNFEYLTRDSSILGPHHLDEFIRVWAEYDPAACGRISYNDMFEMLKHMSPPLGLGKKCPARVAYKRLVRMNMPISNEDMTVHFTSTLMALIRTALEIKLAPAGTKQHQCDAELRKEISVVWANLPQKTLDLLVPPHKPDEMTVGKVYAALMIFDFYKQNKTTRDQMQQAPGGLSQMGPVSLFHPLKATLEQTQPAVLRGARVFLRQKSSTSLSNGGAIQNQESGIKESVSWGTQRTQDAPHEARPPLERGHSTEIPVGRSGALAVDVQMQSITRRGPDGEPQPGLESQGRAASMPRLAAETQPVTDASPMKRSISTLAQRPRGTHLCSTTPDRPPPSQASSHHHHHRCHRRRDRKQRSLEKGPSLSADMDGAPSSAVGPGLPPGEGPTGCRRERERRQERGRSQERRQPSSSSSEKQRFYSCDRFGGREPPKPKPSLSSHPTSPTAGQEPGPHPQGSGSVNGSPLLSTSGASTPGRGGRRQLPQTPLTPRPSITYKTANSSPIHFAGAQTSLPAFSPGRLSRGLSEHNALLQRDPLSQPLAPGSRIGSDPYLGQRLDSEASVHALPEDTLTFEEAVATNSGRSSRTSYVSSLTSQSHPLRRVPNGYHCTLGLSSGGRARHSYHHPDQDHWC
Sequence (P54289 25-956 partner limits assumed): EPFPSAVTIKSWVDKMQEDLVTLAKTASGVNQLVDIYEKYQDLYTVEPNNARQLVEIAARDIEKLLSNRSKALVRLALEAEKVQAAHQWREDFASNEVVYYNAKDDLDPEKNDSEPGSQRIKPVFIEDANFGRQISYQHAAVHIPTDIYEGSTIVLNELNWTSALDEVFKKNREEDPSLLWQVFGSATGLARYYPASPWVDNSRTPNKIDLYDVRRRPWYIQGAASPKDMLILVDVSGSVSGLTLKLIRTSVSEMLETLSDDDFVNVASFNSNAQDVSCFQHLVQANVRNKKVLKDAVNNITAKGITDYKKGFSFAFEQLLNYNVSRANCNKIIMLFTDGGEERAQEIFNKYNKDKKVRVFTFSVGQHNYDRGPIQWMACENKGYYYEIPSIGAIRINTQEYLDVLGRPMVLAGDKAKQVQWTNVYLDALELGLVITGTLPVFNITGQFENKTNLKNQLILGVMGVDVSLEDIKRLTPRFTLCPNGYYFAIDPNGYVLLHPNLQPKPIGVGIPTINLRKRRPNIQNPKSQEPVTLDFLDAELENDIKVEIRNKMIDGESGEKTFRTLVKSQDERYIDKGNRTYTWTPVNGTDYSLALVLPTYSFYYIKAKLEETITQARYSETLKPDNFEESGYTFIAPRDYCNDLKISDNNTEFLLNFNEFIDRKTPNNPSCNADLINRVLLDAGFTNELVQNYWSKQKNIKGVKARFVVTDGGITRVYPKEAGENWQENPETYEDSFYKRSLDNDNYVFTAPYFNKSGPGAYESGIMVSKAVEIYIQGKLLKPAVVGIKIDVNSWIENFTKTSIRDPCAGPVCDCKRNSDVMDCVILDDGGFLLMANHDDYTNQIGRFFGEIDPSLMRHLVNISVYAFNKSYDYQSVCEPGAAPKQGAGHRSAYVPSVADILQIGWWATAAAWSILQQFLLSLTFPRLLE
Sequence (P54289 957-1103 partner limits assumed): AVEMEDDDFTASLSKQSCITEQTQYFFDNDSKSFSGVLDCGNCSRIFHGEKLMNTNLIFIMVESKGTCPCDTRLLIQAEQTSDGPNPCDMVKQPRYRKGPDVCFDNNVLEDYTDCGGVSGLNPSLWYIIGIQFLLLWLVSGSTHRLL
Sequence (P54284 whole entry partner): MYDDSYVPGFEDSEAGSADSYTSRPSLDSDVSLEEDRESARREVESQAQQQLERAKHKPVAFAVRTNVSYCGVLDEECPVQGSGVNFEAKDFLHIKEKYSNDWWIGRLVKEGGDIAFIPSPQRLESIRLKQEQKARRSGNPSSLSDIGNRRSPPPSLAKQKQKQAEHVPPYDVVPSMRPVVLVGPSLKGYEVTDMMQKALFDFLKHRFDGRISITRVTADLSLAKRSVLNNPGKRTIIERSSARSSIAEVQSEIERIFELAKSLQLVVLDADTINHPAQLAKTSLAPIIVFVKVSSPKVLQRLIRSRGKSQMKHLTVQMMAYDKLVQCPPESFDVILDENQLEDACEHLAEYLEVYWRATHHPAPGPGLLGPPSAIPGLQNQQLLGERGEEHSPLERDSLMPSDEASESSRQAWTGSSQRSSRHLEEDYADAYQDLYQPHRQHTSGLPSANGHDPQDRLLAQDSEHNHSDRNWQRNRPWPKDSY
Test: Patch-Clamp blockade of voltage-dependent N-type calcium channels in recombinant HEK 293 cells
Type: cell-based
Settings: N-type calcium channel, Patch-Clamp, HEK 293 cells; read-out: IC50 value
pIC50: −log10 of the molar value.
Quantity: pIC50

[
  {
    "Molecule": "CNc1cc(-c2ccncc2)nc2ccc3c(ncn3C)c12",
    "Target entity": "N-type calcium channel (Homo sapiens)",
    "pIC50": 5.00
  },
  {
    "Molecule": "CN(C)c1cc(-c2cccc(F)c2)nc2ccc3ncsc3c12",
    "Target entity": "N-type calcium channel (Homo sapiens)",
    "pIC50": 4.84
  },
  {
    "Molecule": "CNc1cc(-c2cccc(F)c2)nc2ccc3c(ncn3C)c12",
    "Target entity": "N-type calcium channel (Homo sapiens)",
    "pIC50": 4.82
  }
]
